# Test system: HEK 293
# Format: cell-based
# test-context: human, 7 days
As shown below, each of these molecules has a reported Minimum toxicity concentration of drug (MTC) HEK 293 value.
The reply should be a number in µM, with the unit left off.

Some solved entries appear below for comparison.
## Input API: value(readout=Minimum toxicity concentration of drug (MTC) HEK 293, system=HEK 293) for record `CCCCCCCCN(CCCCCCCC)Cc1ccccc1`
## Output 50

## Input API: value(readout=Minimum toxicity concentration of drug (MTC) HEK 293, system=HEK 293) for record `CCCCCCCCN(CCCCCCCC)c1cccc(C)c1`
## Output 50

## Input API: value(readout=Minimum toxicity concentration of drug (MTC) HEK 293, system=HEK 293) for record `CCCCCCCCCCN(CCCCCC)CCCCCC`
## Output 25

## Input API: value(readout=Minimum toxicity concentration of drug (MTC) HEK 293, system=HEK 293) for record `CCCCCCCCN(CCCCCCCC)CCc1cn(-c2ccc3c4c(cccc24)C(=O)N(CC)C3=O)nn1`
## Output 3.1

Turning now to a further record.
## Input API: value(readout=Minimum toxicity concentration of drug (MTC) HEK 293, system=HEK 293) for record CCCCCCCCN(CCCCCCCC)CCCCCCCC [Compound 13, N,N,N-Trioctylammonium Chloride]
## Output 6.5
